The values you see were collected from patent US11286268B1.

pIC50 listing for selected molecules.
target: recombinant eIF4E (Homo sapiens (Human), UniProt P06730); experiment: Fluorescence polarization competition assay for eIF4E binding potency; settings: fluorescence polarization competition, 75 nM recombinant eIF4E, 20 nM EDA-m7GDP-ATTO-550; IC50 class; read-out: elF4E FP
Sequence (P06730 whole entry): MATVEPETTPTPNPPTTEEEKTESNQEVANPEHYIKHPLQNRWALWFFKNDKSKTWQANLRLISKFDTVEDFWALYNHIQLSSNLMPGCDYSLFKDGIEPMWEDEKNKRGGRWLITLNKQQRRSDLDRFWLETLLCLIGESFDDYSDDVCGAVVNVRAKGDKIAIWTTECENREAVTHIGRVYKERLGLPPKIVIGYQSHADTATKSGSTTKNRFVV
pIC50: −log10 of the molar value.
MEASURED_QUANTITY: pIC50

SMILES: Cc1ccc(F)c(-c2c(C(F)(F)F)cc3nc(C)n(CCOc4ccc(Cl)cc4-c4cc(C)nc5c(C(=O)O)csc45)c(=O)c3c2C#N)n1
TARGET_OR_SYSTEM: recombinant eIF4E (Homo sapiens (Human), UniProt P06730)
TEST_VALUE: > 7.30
//
SMILES: Cc1cc(-c2c(Cl)cc3nc(C)n(CCOc4ccc(Cl)cc4-c4cc(C)nc5c(C(=O)O)csc45)c(=O)c3c2C#N)ccn1
TARGET_OR_SYSTEM: recombinant eIF4E (Homo sapiens (Human), UniProt P06730)
TEST_VALUE: > 7.30
//
SMILES: Cc1nc2ccc(F)c(C#N)c2c(=O)n1CCOc1ccc(Cl)cc1-c1ccnc2c(C(=O)O)csc12
TARGET_OR_SYSTEM: recombinant eIF4E (Homo sapiens (Human), UniProt P06730)
TEST_VALUE: > 7.30
//
SMILES: Cc1nc2cc(C(F)(F)F)cc(C#N)c2c(=O)n1CCOc1ncc(Cl)cc1-c1ccnc2c(C(=O)O)csc12
TARGET_OR_SYSTEM: recombinant eIF4E (Homo sapiens (Human), UniProt P06730)
TEST_VALUE: 6.00 to 7.30
//
SMILES: CONC(=O)c1csc2c(-c3cc(Cl)ccc3OCCn3c(C)nc4c(F)cc(C(F)F)c(C#N)c4c3=O)ccnc12
TARGET_OR_SYSTEM: recombinant eIF4E (Homo sapiens (Human), UniProt P06730)
TEST_VALUE: 6.00 to 7.30
//
SMILES: Cc1cc(-c2cc(Cl)ccc2OCCn2c(C)nc3c(C)nc(-c4ccccc4C(F)(F)F)c(C#N)c3c2=O)c2scc(C(=O)O)c2n1
TARGET_OR_SYSTEM: recombinant eIF4E (Homo sapiens (Human), UniProt P06730)
TEST_VALUE: > 7.30

----------
// reported pIC50 for each item listed
biological target: recombinant eIF4E (Homo sapiens (Human)); experiment: Fluorescence polarization competition assay for eIF4E binding potency; conditions: fluorescence polarization competition, 75 nM recombinant eIF4E, 20 nM EDA-m7GDP-ATTO-550; IC50 class; read-out: elF4E FP
pIC50: −log10 of the molar value.

SMILES: COc1c(CN(C)C)cc2nc(C)n(CCOc3ccc(Cl)cc3-c3cc(C)nc4c(C(=O)O)csc34)c(=O)c2c1C#N
pIC50: > 7.30
//
SMILES: Cc1ccc(-c2cc(Cl)ccc2OCCn2c(C)nc3cnc(C4CC4)c(C#N)c3c2=O)c2scc(C(=O)O)c12
pIC50: > 7.30
//
SMILES: CONC(=O)c1csc2c(-c3cc(Cl)ccc3OCCn3c(C)nc4cc(C(F)(F)F)c(Cl)c(C#N)c4c3=O)ccnc12
pIC50: 6.00 to 7.30
//
SMILES: Cc1cc(-c2cc(Cl)ccc2OCCn2c(C)nc3cc(Cl)c(N4CC(F)(F)C4)c(C#N)c3c2=O)c2scc(C(=O)O)c2n1
pIC50: > 7.30
//
SMILES: Cc1cc(-c2cc(Cl)ccc2OCCn2c(C)nc3cc(C(F)(F)F)c(-c4cnc(C(F)F)cn4)nc3c2=O)c2scc(C(=O)O)c2n1
pIC50: > 7.30
//
SMILES: Cc1cc(-c2cc(Cl)ccc2OCCn2c(C)nc3cc(-c4cccnc4)c(Cl)c(C#N)c3c2=O)c2scc(C(=O)O)c2n1
pIC50: > 7.30

----------
Reported IC50 values for the following molecules.
molecular target: recombinant eIF4E (Homo sapiens (Human), UniProt P06730); assay: Fluorescence polarization competition assay for eIF4E binding potency; conditions: fluorescence polarization competition, 75 nM recombinant eIF4E, 20 nM EDA-m7GDP-ATTO-550; IC50 class; read-out: elF4E FP

SMILES: Cc1nc2cc(Cl)c(OC(F)F)c(C#N)c2c(=O)n1CCOc1ccc(Cl)cc1-c1ccnc2c(C(=O)O)csc12
TARGET_OR_SYSTEM: recombinant eIF4E (Homo sapiens (Human), UniProt P06730)
IC50: < 50 nM

SMILES: CCOc1c(C(F)(F)F)cc2nc(C)n(CCOc3ccc(Cl)cc3-c3cc(C)nc4c(C(=O)O)csc34)c(=O)c2c1C#N
TARGET_OR_SYSTEM: recombinant eIF4E (Homo sapiens (Human), UniProt P06730)
IC50: 50 to 1000 nM

SMILES: Cc1nc2c(C3CCN(CC(F)(F)F)CC3)ncc(C#N)c2c(=O)n1CCOc1ccc(Cl)cc1-c1ccnc2c(C(=O)O)csc12
TARGET_OR_SYSTEM: recombinant eIF4E (Homo sapiens (Human), UniProt P06730)
IC50: < 50 nM

SMILES: Cc1nc2cnc(N3CCC(N4CCC(F)(F)CC4)CC3)c(C#N)c2c(=O)n1CC#Cc1ccc(Cl)cc1-c1ccnc2c(C(=O)O)csc12
TARGET_OR_SYSTEM: recombinant eIF4E (Homo sapiens (Human), UniProt P06730)
IC50: < 50 nM

SMILES: Cc1cc(-c2cc(Cl)ccc2OCCn2c(C)nc3cnc(N4CC(OC(F)(F)F)C4)c(C#N)c3c2=O)c2scc(C(=O)O)c2n1
TARGET_OR_SYSTEM: recombinant eIF4E (Homo sapiens (Human), UniProt P06730)
IC50: < 50 nM

SMILES: Cc1ccc(-c2ncc3nc(C)n(CCOc4ccc(Cl)cc4-c4cc(C)nc5c(C(=O)O)csc45)c(=O)c3c2C#N)cc1
TARGET_OR_SYSTEM: recombinant eIF4E (Homo sapiens (Human), UniProt P06730)
IC50: < 50 nM

----------
target: recombinant eIF4E (Homo sapiens (Human)); experiment: Fluorescence polarization competition assay for eIF4E binding potency; details: fluorescence polarization competition, 75 nM recombinant eIF4E, 20 nM EDA-m7GDP-ATTO-550; IC50 class; read-out: elF4E FP
MEASURED_QUANTITY: IC50

COMPOUND: Cc1cc(-c2cc(Cl)ccc2OCCn2c(C)nc3cc(C(F)(F)F)c(-c4ccncc4F)c(C#N)c3c2=O)c2scc(C(=O)O)c2n1 [compound 344]
MEASURED_QUANTITY: IC50
TEST_VALUE: < 50 nM
--
COMPOUND: Cc1cc(-c2cc(Cl)ccc2OCCn2c(C)nc3cc(C(F)(F)F)c(CC4CCN(C)CC4)c(C#N)c3c2=O)c2scc(C(=O)O)c2n1 [compound 713]
MEASURED_QUANTITY: IC50
TEST_VALUE: < 50 nM
--
COMPOUND: Cc1cc(-c2cc(Cl)ccc2OCCn2c(C)nc3cc(F)c(F)c(C#N)c3c2=O)c2scc(C(=O)NS(C)(=O)=O)c2n1 [compound 567]
MEASURED_QUANTITY: IC50
TEST_VALUE: < 50 nM
--
COMPOUND: Cc1nc2cc(C(F)(F)F)c(N3CCN(C)CC3)c(C#N)c2c(=O)n1CCOc1ccc(Cl)cc1-c1ccnc2cc(C#N)sc12 [compound 1245]
MEASURED_QUANTITY: IC50
TEST_VALUE: < 50 nM
--
COMPOUND: Cc1nc2c(N(C)C3CC4CCC(C3)N4C)ncc(C#N)c2c(=O)n1CCOc1ccc(Cl)cc1-c1ccnc2c(C(=O)O)csc12 (centres unmarked) [compound 863]
MEASURED_QUANTITY: IC50
TEST_VALUE: < 50 nM
--
COMPOUND: Cc1nc2cc(C(F)(F)F)c(N3CCN(C)CC3)c(C#N)c2c(=O)n1CCOc1ccc(Cl)cc1-c1cc(C(=O)O)nc(N(C)C)c1 [compound 1225]
MEASURED_QUANTITY: IC50
TEST_VALUE: < 50 nM
--
COMPOUND: Cc1nc2cc(C(F)(F)F)cc(Cl)c2c(=O)n1CCOc1ccc(Cl)cc1-c1ccnc2c(C(=O)O)csc12 [compound 198]
MEASURED_QUANTITY: IC50
TEST_VALUE: 50 to 1000 nM
--
COMPOUND: Cc1nc2cc(C(F)(F)F)cc(C#N)c2c(=O)n1CCOc1ccc(Cl)cc1-c1csc2c(C(=O)O)csc12 [compound 203]
MEASURED_QUANTITY: IC50
TEST_VALUE: 50 to 1000 nM

----------
target: recombinant eIF4E (Homo sapiens (Human)); experiment: Fluorescence polarization competition assay for eIF4E binding potency; conditions: inhibition of eIF4E/EDA-m7GDP-ATTO-550 binding by 50%; Table 4B calculated values; read-out: IC50
Parameter IC50: see the listing below.
MEASURED_QUANTITY: IC50 (nM)

COMPOUND: Cc1nc2cc(OC(F)(F)F)c(CN(C)C)c(C#N)c2c(=O)n1CCOc1ccc(Cl)cc1-c1ccnc2c(C(=O)O)csc12 [compound 532]
READOUT_UNIT: nM
TEST_VALUE: 45.1
--
COMPOUND: Cc1nc2cnc(N3CC4(CN(CC(F)(F)F)C4)C3)c(C#N)c2c(=O)n1CCOc1ccc(Cl)cc1-c1ccnc2c(C(=O)O)csc12 [compound 840]
READOUT_UNIT: nM
TEST_VALUE: 10.4
--
COMPOUND: Cc1nc2cc(C(F)(F)F)cc(C#N)c2c(=O)n1CCOc1cnc(C#N)nc1-c1ccnc2c(C(=O)O)csc12 [compound 455]
READOUT_UNIT: nM
TEST_VALUE: 473
--
COMPOUND: CCc1nc2cnccc2c(=O)n1CCOc1ccc(Cl)cc1-c1cccc(C(=O)O)c1 [compound 70]
READOUT_UNIT: nM
TEST_VALUE: 432
--
COMPOUND: Cc1cc(-c2cc(Cl)ccc2OCCn2c(C)nc3cc(Cl)cc(C#N)c3c2=O)c2scc(C(=O)O)c2n1 [compound 693]
READOUT_UNIT: nM
TEST_VALUE: 15
--
COMPOUND: Cc1cc(-c2cc(Cl)ccc2OCCn2c(C)nc3cc(C(F)(F)F)cc(C#N)c3c2=O)cc(CC(=O)O)n1 [compound 411]
READOUT_UNIT: nM
TEST_VALUE: 193
--
COMPOUND: Cc1cc(-c2cc(Cl)ccc2OCCn2c(C)nc3cc(C(F)(F)F)c(CN4CCN(CC(F)F)CC4)c(C#N)c3c2=O)c2scc(C(=O)O)c2n1 [compound 739]
READOUT_UNIT: nM
TEST_VALUE: 30.8
--
COMPOUND: Cc1cc(-c2cc(Cl)ccc2OCCn2c(C)nc3cc(Cl)c(-c4cccnc4C)c(C#N)c3c2=O)c2scc(C(=O)O)c2n1 [compound 395]
READOUT_UNIT: nM
TEST_VALUE: 9.68
--
COMPOUND: Cc1nc2cnc(N(C)C3CCN([C@H]4C[C@@H](OC(F)F)C4)CC3)c(C#N)c2c(=O)n1CC#Cc1ccc(Cl)cc1-c1ccnc2c(C(=O)O)csc12 [compound 1172]
READOUT_UNIT: nM
TEST_VALUE: 14.2
--
COMPOUND: CCc1cc(-c2cc(Cl)ccc2OCCn2c(N)nc3cc(Cl)cc(C#N)c3c2=O)c2scc(C(=O)O)c2n1 [compound 1077]
READOUT_UNIT: nM
TEST_VALUE: 245
--
COMPOUND: Cc1cc(-c2cc(Cl)ccc2OCCn2c(C)nc3cc(F)c(CN4CCOCC4)c(C#N)c3c2=O)c2scc(C(=O)O)c2n1 [compound 367]
READOUT_UNIT: nM
TEST_VALUE: 2.87
--
COMPOUND: Cc1cc(-c2cc(Cl)ccc2OCCn2c(C)nc3cc(C(F)(F)F)c(C)c(C#N)c3c2=O)c2scc(C(=O)O)c2n1 [compound 363]
READOUT_UNIT: nM
TEST_VALUE: 22.8
